Origin of measurements: patent US20180057604A1

# target_desc: T1, human BACE1 ECD
# T1 construct: analyte of the Octet assay (200 nM) and enzyme of the first short substrate assay; also called human BACE1 extracellular domain
# assay_overview: Octet, pH 5.0
# pKd listing for each entry below
The read-out pKd is expressed as -log10 of concentration in moles per litre.

Reference set (2 entries):
5876 (antibody, V domains shown, anti-BACE1 IgG) VH: EVQLLESGGGLVQPGGSLRLSCAASGFTFSSRAMGWVRQAPGKGLEWVSATSGSGGSIYYADSVKGRFTISRDNSKNTLYLQMNSLRAEDTAVYYCAKGGSQWLYAPGSWFDPWGQGTLVTVSS VL: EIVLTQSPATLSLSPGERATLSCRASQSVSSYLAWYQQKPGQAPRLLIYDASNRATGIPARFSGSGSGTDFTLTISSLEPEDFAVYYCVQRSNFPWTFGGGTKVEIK	7.51
5881 (antibody, V domains shown, anti-BACE1 IgG) VH: EVQLLESGGGLVQPGGSLRLSCAASGFTFSKYAMSWVRQAPGKGLEWVSAISGSGISTPYADSVKGRFTISRDNSKNTLYLQMNSLRAEDTAVYYCAKGAGHGSYVKGWFDPWGQGTLVTVSS VL: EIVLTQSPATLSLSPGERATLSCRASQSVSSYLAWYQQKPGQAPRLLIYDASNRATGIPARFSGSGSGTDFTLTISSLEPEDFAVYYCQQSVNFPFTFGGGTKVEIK	7.96

# next binder below
[ask] Form field: reported pKd of 5887 (antibody, V domains shown, anti-BACE1 IgG) VH: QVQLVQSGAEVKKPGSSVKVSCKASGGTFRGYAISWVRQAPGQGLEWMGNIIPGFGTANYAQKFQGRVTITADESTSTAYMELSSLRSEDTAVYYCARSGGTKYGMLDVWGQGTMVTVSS VL: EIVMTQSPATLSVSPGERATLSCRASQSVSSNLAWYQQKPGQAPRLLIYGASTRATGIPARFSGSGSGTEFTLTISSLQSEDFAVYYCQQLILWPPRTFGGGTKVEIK
[reply] 8.66
